Data provenance: ChEMBL document CHEMBL3399928

measurementProtocol: AUC (0 to infinity) in Sprague-Dawley rat at 2 mg/kg, iv
Type: ADME, organism-based
Design: time infinity, dose 2 mg/kg, route intravenous
condition: plasma
quantityName: AUC(0-inf)
I'd appreciate it if you included the unit after the number.

AUC(0-inf) lookup needed for Cc1nc(-c2ccc3c(c2)c(C#N)cn3C(C)C)sc1C(=O)O , thanks.
12500 ng·h/mL

====

Quick list: Cmax per entry.
measurementProtocol: Cmax in Sprague-Dawley rat at 10 mg/kg, po
Format: ADME, organism-based
Design: dose 10 mg/kg, route oral
condition: in vivo
Answer format: numeric, ng/mL implied, no suffix.

1. Cc1nc(-c2ccc(OCC(C)C)c(C#N)c2)sc1C(=O)O
16400
2. Cc1nc(-c2ccc3c(c2)c(C#N)cn3C(C)C)sc1C(=O)O
3980

Attention now shifts to the item below.
What value of Cmax has been reported for the following molecule? CC(C)n1cc(C#N)c2cc(-c3ncc(C(=O)O)s3)ccc21
940
